system: SNB-78; assay: NCI tumour cell line growth inhibition, 48 h
Activity calls are given as the source filed them. No stated cut-off is given here; in the data, active = GI50 up to about 1.1 µM and inactive = higher.
# reported GI50; entries follow
metric: GI50

>>> result("O=C1C(=O)C2(CC1S(=O)(=O)c1ccccc1)c1ccccc1-c1ccccc12 (stereo not drawn)")
"17.5 µM (inactive)"
>>> result("O=C(NCCNCCO)N/N=C/c1cccc([N+](=O)[O-])c1")
"> 100 µM (inactive)"
>>> result("CCc1c(-c2coc(CC/C(C)=C/c3ccccc3)n2)oc(OC)c(C)c1=O")
"53.3 µM (inactive)"

----------
system: SW-620; assay: NCI tumour cell line growth inhibition, 48 h
Active and inactive are the calls of the source. No stated cut-off is given here; in the data, active = GI50 up to about 1.1 µM and inactive = higher.
Possible outcomes: yes = active, no = inactive

>>> categorylabel("CC1=C(c2ccc(C)cc2)NC(=S)C(C)C(c2ccc(C)cc2)=N1 (stereo not given)")
"no"
>>> categorylabel("O=C1NC2C(=CC(O)C(O)C2O)c2cc3c(cc21)OCO3 (stereo not given)")
"yes"
>>> categorylabel("O=C(c1c(F)c(F)c(F)c(F)c1F)n1c(=S)n(C(=O)c2c(F)c(F)c(F)c(F)c2F)c2ccccc21")
"no"
>>> categorylabel("CN(C)CCC1(C2=CCCC2)CC/C(=C\\c2ccccc2)C1=O (stereo not given)")
"no"
>>> categorylabel("CCCc1[nH]c2ccccc2c1-c1c(CCC)[nH]c2ccccc12")
"no"

Ref: ChEMBL document CHEMBL1201862
